SYSTEM UNDER TEST: T1, GFP-9S library array, motif 4 ND N98S;D124G (synthetic construct, N98S;D124G)
T1 chain: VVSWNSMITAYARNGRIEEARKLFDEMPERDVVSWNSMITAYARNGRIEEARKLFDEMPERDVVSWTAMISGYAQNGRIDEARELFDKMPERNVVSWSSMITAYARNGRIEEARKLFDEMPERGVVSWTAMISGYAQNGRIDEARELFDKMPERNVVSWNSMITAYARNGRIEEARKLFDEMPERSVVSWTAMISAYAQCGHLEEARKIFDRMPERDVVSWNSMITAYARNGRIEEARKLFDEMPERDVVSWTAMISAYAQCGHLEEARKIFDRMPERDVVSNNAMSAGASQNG
METHOD DESCRIPTION: high-throughput RNA pulldown from lysate on Ni-NTA beads; HRP: 50 mM Tris pH 8, 150 mM NaCl, 1 mM beta-mercaptoethanol, 50 ug/ml BSA, 3 ug/ml yeast RNA, 0.5% heparin; ITC and FP: Tris pH 8, 200 mM KCl, 5% glycerol; MST: 50 mM Tris pH 8, 200 mM NaCl, 1 mM DTT, BSA, heparin, 0.05% Tween 20
RUN PARAMETERS: tags: N-terminal His-eGFP; label: 5' Cy5
pKd: −log10 of the molar value.
pKd values for the binders below.
ASSAY READOUT: pKd

>>> assay_result("AUUAGACGUGA (ssRNA) [Cy5-rpoA-G]")
6.80
>>> assay_result("AUUACACGUGA (ssRNA) [Cy5-rpoA]")
6.74
